- measurement target: Dual specificity protein kinase TTK (Homo sapiens)
- Sequence (P33981 whole entry): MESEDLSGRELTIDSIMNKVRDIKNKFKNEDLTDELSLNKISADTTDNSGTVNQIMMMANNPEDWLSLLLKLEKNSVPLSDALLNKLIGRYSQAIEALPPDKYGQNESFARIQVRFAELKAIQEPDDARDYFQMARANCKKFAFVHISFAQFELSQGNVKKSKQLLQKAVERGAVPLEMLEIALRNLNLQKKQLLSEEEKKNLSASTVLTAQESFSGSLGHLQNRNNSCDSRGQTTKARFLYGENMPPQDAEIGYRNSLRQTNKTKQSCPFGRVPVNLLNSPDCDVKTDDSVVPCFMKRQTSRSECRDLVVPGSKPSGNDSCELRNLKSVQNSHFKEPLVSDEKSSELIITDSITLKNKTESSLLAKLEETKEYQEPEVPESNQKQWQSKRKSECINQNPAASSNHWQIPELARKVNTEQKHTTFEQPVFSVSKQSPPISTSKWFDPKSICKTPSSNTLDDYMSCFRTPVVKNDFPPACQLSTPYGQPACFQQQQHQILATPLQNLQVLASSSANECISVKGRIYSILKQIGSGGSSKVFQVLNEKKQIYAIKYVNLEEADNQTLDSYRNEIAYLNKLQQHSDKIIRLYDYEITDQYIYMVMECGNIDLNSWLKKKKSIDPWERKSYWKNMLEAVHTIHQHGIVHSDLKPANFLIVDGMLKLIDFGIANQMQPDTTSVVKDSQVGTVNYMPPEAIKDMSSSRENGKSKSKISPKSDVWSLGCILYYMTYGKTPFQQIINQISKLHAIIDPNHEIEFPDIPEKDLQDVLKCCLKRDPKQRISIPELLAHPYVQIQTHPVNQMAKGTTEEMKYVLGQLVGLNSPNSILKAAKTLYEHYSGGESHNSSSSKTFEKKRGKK
readout kind: pIC50
Notebook: values listed as pIC50 are -log10 of the concentration (mol/L).

Input: Record lookup: for Dual specificity protein kinase TTK (Homo sapiens), what pIC50 belongs to O=C(Nc1ccc2[nH]nc(-c3ccncc3)c2c1)[C@H]1CCN(CC(=O)N2CCN(c3ccc(-c4ncccn4)cc3)CC2)C1 [SCH772984] ?
Output: 6.71

----------
- measurement target: Serine/threonine-protein kinase 17A (Homo sapiens)
- Sequence (Q9UEE5 whole entry): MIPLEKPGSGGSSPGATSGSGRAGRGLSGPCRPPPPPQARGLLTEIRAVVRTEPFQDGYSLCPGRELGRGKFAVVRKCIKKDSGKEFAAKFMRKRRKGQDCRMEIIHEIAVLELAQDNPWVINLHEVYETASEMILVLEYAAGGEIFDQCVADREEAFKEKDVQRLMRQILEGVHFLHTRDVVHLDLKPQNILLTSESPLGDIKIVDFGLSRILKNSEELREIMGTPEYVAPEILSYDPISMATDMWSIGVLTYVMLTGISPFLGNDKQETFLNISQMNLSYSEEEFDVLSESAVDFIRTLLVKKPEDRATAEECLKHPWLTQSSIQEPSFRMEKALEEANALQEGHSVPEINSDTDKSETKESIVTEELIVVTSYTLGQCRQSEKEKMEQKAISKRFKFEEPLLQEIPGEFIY
readout kind: IC50 (nM)
Numeric answer only, unit nM assumed.

Input: Could you tell me which IC50 is on file for O=C(Nc1ccc2[nH]nc(-c3ccncc3)c2c1)[C@H]1CCN(CC(=O)N2CCN(c3ccc(-c4ncccn4)cc3)CC2)C1 ?
Output: 114

----------
- measurement target: Mitogen-activated protein kinase 3 (Homo sapiens)
- Sequence (P27361 whole entry): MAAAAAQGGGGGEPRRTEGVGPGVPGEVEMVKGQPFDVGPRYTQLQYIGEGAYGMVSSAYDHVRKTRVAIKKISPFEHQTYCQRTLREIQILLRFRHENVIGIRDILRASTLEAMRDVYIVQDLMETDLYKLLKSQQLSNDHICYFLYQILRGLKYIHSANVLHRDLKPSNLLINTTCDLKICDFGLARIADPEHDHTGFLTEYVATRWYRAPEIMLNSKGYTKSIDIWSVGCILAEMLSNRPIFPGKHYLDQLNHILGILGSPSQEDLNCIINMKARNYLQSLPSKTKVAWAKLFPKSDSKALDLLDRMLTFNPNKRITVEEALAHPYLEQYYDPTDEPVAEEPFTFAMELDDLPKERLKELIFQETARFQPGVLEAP
- test name: Selectivity screening
readout kind: pIC50
Notebook: values listed as pIC50 are -log10 of the concentration (mol/L).

Input: Record lookup: for Mitogen-activated protein kinase 3 (Homo sapiens), what pIC50 belongs to O=C(Nc1ccc2[nH]nc(-c3ccncc3)c2c1)[C@H]1CCN(CC(=O)N2CCN(c3ccc(-c4ncccn4)cc3)CC2)C1 ?
Output: 8.08

----------
- measurement target: Mitogen-activated protein kinase 10 (Homo sapiens, UniProt P53779)
- Sequence (P53779 whole entry): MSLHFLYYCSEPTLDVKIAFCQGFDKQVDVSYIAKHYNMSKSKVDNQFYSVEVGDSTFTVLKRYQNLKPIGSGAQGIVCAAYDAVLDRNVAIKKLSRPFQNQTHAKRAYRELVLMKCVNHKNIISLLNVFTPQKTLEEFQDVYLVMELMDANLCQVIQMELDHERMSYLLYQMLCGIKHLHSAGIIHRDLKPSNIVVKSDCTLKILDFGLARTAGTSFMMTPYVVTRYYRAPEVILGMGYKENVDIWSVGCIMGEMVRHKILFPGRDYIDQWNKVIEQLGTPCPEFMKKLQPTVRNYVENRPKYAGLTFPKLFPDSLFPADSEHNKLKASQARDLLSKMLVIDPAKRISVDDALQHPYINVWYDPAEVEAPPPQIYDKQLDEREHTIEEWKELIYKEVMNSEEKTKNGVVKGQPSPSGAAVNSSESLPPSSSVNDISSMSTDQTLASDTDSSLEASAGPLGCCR
- test name: Selectivity screening
readout kind: IC50
Express your answer as a number followed by its unit.

Input: Could you tell me which IC50 is on file for O=C(Nc1ccc2[nH]nc(-c3ccncc3)c2c1)[C@H]1CCN(CC(=O)N2CCN(c3ccc(-c4ncccn4)cc3)CC2)C1 [SCH772984] ?
Output: 632 nM
